Biological target: T1, Claudin 18.2 (CLDN18.2), expressed on CHOS-CLDN 18.2 / HEK293-CLDN 18.2 / HCC827-CLDN 18.2 cells (human, UniProt P56856-2 1-261)
T1 construct: whole, on cells; The species is not repeated for the CHOS-CLDN 18.2 cells; also called claudin-18A2
Experiment: FACS, CHOS-CLDN18.2 cells, 0.005 µg/ml

{"BINDER": "QP024025 (antibody, human IgG1, V domains shown, also called IMAB362; 175D10(IMAB362)) VH: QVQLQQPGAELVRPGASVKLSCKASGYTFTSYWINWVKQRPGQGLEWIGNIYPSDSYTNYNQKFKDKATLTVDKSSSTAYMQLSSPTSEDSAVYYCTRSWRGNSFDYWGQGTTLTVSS VL: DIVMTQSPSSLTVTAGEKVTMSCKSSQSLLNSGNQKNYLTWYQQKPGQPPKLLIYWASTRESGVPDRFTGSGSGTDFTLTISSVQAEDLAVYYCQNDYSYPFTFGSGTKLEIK", "FACS reading": 2830}
